Tested on: CCRF-CEM leukemia
test_description: NCI-60 one-dose screen, 48 h (100 = growth as untreated, 0 = no growth, -100 = all killed)
stated_conditions: 10 µM unless noted
The panel holds about 83,000 compounds, 20% with a hit somewhere; the sample as a whole holds those more often.
measured_attribute: growth (%)
Give bare numbers, in %.

Consider the following illustrative entries.
- COc1ccc(/C=N/NC(=O)c2ccc(S(C)(=O)=O)cc2)cc1OC: 103
- COc1ccc(/C=C(\C#N)c2ccccc2)cc1: 93.1
- COc1ccc(OC)c2c1[nH]c(=O)c1c3ccccc3cn21: -48.7
- Cn1cc(-c2csc(-c3cn(C)c4ncccc34)n2)c2cc(Br)cnc21: 80

Would you be so kind as to report growth for each listed record?
1. C[N+]1(CCc2ccccc2)CCC(CCC2CC[N+](C)(CCc3ccccc3)CC2)CC1 (stereo unspecified)
2. Cc1nc(N)[nH]c(=O)c1C

### Response
1. 127
2. 94.7

* * *

System: SF-539 CNS
test_description: NCI-60 one-dose screen, 48 h (100 = growth as untreated, 0 = no growth, -100 = all killed)
stated_conditions: 10 µM unless noted
This is part of a sample that, as a whole, favours compounds with a hit. Of some 83,000 tested, about 20% had one in any assay.
Mark 1.0 only when growth stays strictly below 90%. Values equal to the cut-off are 0.0.

Example results:
- O=C(C(=O)N1CCOCC1)c1ccc(OC2OC(CO)C(O)C(O)C2O)cc1 (stereo not given): 0.0
- CCCOc1ccc2c(c1)CC[C@@H]1[C@@H]2CC[C@@]2(C)[C@H]1CC[C@]2(C)O: 1.0
- CN(C)c1nc(N)nc(Cn2c(-c3nonc3N)nc3ccccc32)n1: 1.0

Now consider the entry below.
### Prompt Quick check: growth of `O[C@@H]1Cc2ccc3ccccc3c2N[C@H](c2ccoc2)C1` under 90%?
### Response 0.0

* * *

Test system: HT29 colon
test_description: NCI-60 one-dose screen, 48 h
stated_conditions: 10 µM unless noted
The panel holds about 83,000 compounds, 20% with a hit somewhere; the sample as a whole holds those more often. Calls of active or inactive are those of the source. The calls were made as follows: active = growth percent below 10; inactive = the rest.
Use one of these outcomes when replying: active, inactive

Below are worked cases with known answers.
- O=[N+]([O-])c1ccc2c(c1)S(=O)c1cc([N+](=O)[O-])ccc1N2: inactive
- Cc1c(C(N)=O)sc2c1c(=O)n(Cc1ccccc1)c1nnc(SCC(=O)Nc3ccc(Cl)cc3)n21: inactive
- CN(C)c1ccc2[nH]c3c(C(N)=O)cc(=O)c(=O)c=3oc2c1: inactive
- OCc1nnn(-c2ccccc2)c1CO: inactive
- Cc1ccc(NC(=O)COC(=O)c2ccc(S(=O)(=O)N3CCCCCC3)cc2)cc1: inactive

### Prompt Lab log entry: `C[C@]12CC[C@@H]3c4ccc(O)cc4CC[C@H]3[C@@H]1CC[C@@H]2NS(=O)(=O)c1cccc(Br)c1` — outcome as called in the assay?
### Response inactive

### Prompt Record lookup: outcome of this test for `COc1ccc(Cn2c(NCCCN(C)C)nc(=O)n(Cc3ccc(F)cc3)c2=O)cc1` ?
### Response inactive

* * *

Test system: TK-10 renal
test_description: NCI-60 one-dose screen, 48 h (100 = growth as untreated, 0 = no growth, -100 = all killed)
stated_conditions: 10 µM unless noted
This is part of a sample that, as a whole, favours compounds with a hit. Of some 83,000 tested, about 20% had one in any assay.
measured_attribute: growth (%)
One number for each entry, in %.

Example entries begin here.
• CCOc1cc(C(C)(C)C)ccc1C1=N[C@H](c2ccc(Cl)cc2)[C@H](c2ccc(Cl)cc2)N1C(=O)N1CCN(CC#Cc2cccc3c2CN([C@@H]2CCC(=O)NC2=O)C3=O)CC1 = 49
• CCC(c1ccccc1)c1noc(CCN(CC)CC)n1 (stereo unspecified) = 96.7
• C/C(=C\CCc1ccoc1)CC/C=C(\C)CCCN1CCC(CO)CC1 = 97.2
• COc1ccc2nccc(/C=C/c3ccnc4ccc(OC)cc34)c2c1 = 148
• C/C(=N/N=C(N)N)c1ccc(Cl)cc1 = 55.3
• NC(N)=N/N=C(/c1ccccc1)c1ccc(Cl)cc1 = 94.1
• O=C(OCCBr)c1ccc(Cl)c([N+](=O)[O-])c1 = 106
• CN1COc2ccc3ccccc3c2C1 = 105

For every item in the list below, what is its measured growth?
1. C[C@]12C[C@H](O)[C@H]3[C@@H](CCC4=CC(=O)CC[C@@]43C)[C@@H]1CC[C@@H]2C(=O)CO
2. Oc1ccc(-c2nn(-c3ccccc3)cc2-c2nc3ccccc3s2)cc1
3. COc1cc(C2NC(c3ccc(Cl)cc3)C(C)/C(=N/NC(N)=S)C2C)cc(OC)c1OC (stereo unspecified)
4. COc1ccc(-c2nc3sccn3c2-c2ccnc(S(C)(=O)=O)n2)cc1
5. COC(=O)c1ccc2c(c1)nc(-c1ccc(O)c(OC)c1)n2-c1cc(C(C)(C)C)[nH]n1
6. Cn1cc(-c2csc(-c3cn(C)c4ncccc34)n2)c2cc(F)cnc21
7. CC(=O)Oc1c(C)c(OC(C)=O)c2c(c1C(C)=O)OC1CC(=O)C(C(C)=O)=C(O)C21C (stereo unspecified)

### Response
[108, 142, 103, 117, 116, 104, 109]

I need growth for every entry listed below, if you could help.
1. COc1ccc(-c2c(-c3cc(OC)c(OC)c(OC)c3)noc2N)cc1
2. Cc1nn(-c2ccc(Cl)cc2)c2nc3c(nc12)C(=O)c1ccccc1-3
3. Cc1nn(-c2ccccc2)c2nc3c(nc12)C(=O)CCC3
4. O=C1NCN(c2ccccc2)C12CCN(CCCC(c1ccc(F)cc1)c1ccc(F)cc1)CC2
5. COc1ccc(/C=C2\COc3ccc(O)c(O)c3C2=O)cc1OC
6. O=C(CCc1nnc(Cn2ccnc2)o1)c1nc2ccccc2[nH]1

### Response
[67.3, 94.1, 104, 66.1, 5.44, 110]

* * *

Tested on: COLO 205 colon
test_description: NCI-60 one-dose screen, 48 h (100 = growth as untreated, 0 = no growth, -100 = all killed)
stated_conditions: 10 µM unless noted
The panel holds about 83,000 compounds, 20% with a hit somewhere; the sample as a whole holds those more often.
measured_attribute: growth (%)
Numbers only, in %.

Hi there! I need growth for each item below, if you can.
1. Cc1ccc(C=C2C(Cl)=C(Cl)C(Cl)=C2Cl)cc1
2. CCOC(=O)C1=NN(c2ccc(Cl)cc2)C2C3N(c4ccc(Cl)cc4)N=C(C(=O)OCC)N3c3ccccc3N12 (stereo not given)
3. N#Cc1cnc2cc(OC[C@H](O)CO)c(NC(=O)CC3CSSC3)cc2c1Nc1ccc(OCc2cccc(F)c2)c(Cl)c1
4. COc1cc(C2CC(c3ccc(C)cc3)=NN2C(C)=O)ccc1Oc1ccnc2cc(Cl)ccc12 (stereo not given)
5. C/C(=C\CCc1ccsc1)CC/C=C(\C)CCCN1CCC(CO)CC1

### Response
[-80.3, 128, -79.4, 99.2, -54.9]

* * *

Tested on: NCI-H460 lung
test_description: NCI-60 one-dose screen, 48 h (100 = growth as untreated, 0 = no growth, -100 = all killed)
stated_conditions: 10 µM unless noted
The panel holds about 83,000 compounds, 20% with a hit somewhere; the sample as a whole holds those more often. The source made the active and inactive calls. The calls were made as follows: active = growth percent below 10; inactive = the rest.
Kindly state growth for each of the entries shown.

Known growth results, listed for orientation:
- O=C(O)C(=O)O: 111% (inactive)
- O=C1CC(=O)N(c2ccccc2)O1: 111% (inactive)
- CCOC(=O)c1cc(-c2cccnc2)nc2c(Cl)cc(Cl)cc12: 106% (inactive)
- Cc1cc(CC(=O)O)n(C)c1C(=O)c1ccc(Cl)cc1: 115% (inactive)
- COc1ccc(/C=C(\C#N)c2ccccc2)cc1: 98.9% (inactive)
- COc1ccc(-c2oc3cc(O)c(OC)c(O)c3c(=O)c2OC)cc1O: 1.5% (active)
- Fc1ccc(-c2nnc(-c3c(-c4ccc(F)cc4)nc4ncccn34)o2)cc1: 111% (inactive)
- C/C(=C\CCc1ccoc1)CC/C=C(\C)CCCN1CCC(CO)CC1: 53.8% (inactive)

Okay, here is my list. What is growth for each of these?
1. CCS(=O)(=O)OCCCl
2. Clc1cc(Cl)c(OCC#CI)cc1Cl

### Response
107% (inactive)
100% (inactive)

Working through the 4 molecules below one at a time, give growth for each.
1. CC[C@H](C)C(=O)O[C@H]1C[C@@H](C)C=C2C=C[C@H](C)[C@H](CC[C@@H]3C[C@@H](O)CC(=O)O3)[C@H]21
2. O=C(/C=C/c1cccnc1)NCCCCC1CCCN(C(=O)c2ccccc2)C1 (stereo not drawn)
3. O=C(Nc1ccc(Cl)cc1)Nc1ccc(Nc2nncc3ccccc23)cc1
4. CC(C)c1nc(N(C)S(C)(=O)=O)nc(-c2ccc(F)cc2)c1/C=C/[C@@H](O)C[C@@H](O)CC(=O)O

### Response
["102% (inactive)", "29% (inactive)", "9.89% (active)", "118% (inactive)"]

Hi there! I need growth for each item below, if you can.
1. CCCc1cc(=O)n2c(C(=O)Nc3ccccc3OC)c(C(=O)Nc3ccc(F)cc3)sc2n1
2. O=C(Nc1ncc([N+](=O)[O-])s1)c1cccc([N+](=O)[O-])c1
3. CCCCCCCCSc1ncnc2c1ncn2CO
4. O=C(C(=O)N1CCCCC1)c1ccc(OC2OC(CO)C(O)C(O)C2O)cc1 (stereo not drawn)
5. COc1ccccc1[C@H]1c2[nH]c3ccccc3c2C[C@H]2C(=O)N(CCCCCCC(=O)NO)CC(=O)N12

### Response
44.6% [30 µM] (inactive)
43.4% (inactive)
86.6% (inactive)
114% (inactive)
62.8% (inactive)

Please give growth, item by item, for the list that follows.
1. COc1cc(/C=C/C(=O)Nc2cccnc2Nc2cc(OC)c(OC)c(OC)c2)cc(OC)c1OC
2. NC(=O)NN=C(C1CC1)C1CC1
3. CCOC(=O)C1C(=O)OC2CCCCC21 (stereo not drawn)
4. CC(C)c1ccc(C(=O)Nc2sc3c(CN(C)C)c(O)ccc3c2C(N)=O)cc1

### Response
1: 95.4% (inactive); 2: 106% (inactive); 3: 110% (inactive); 4: 72% (inactive)

Hello, the source for this data is PubChem BioAssay (NCI), in case you need it.
